melting point values by entry

Examples with their reported melting point follow.
SMILES_REPR	melting point
COc1ccc2c(c1)c(CC1=CC(=O)N=N1)c(C)n2C(=O)c1ccc(Cl)cc1	> 230 °C
O=S(=O)(c1ccc(Cl)cc1)N1CCC[C@@H](Nc2nccc(-c3c(-c4cccc(O)c4)nc4sccn34)n2)C1	174 to 177 °C
Cc1cc(-c2cc(C(F)(F)F)n3ncc(C(=O)Nc4cccc(S(=O)(=O)NC5CC5)c4)c3n2)ccc1Cl	244 °C

Here is another molecule to look at.
melting point reported for this molecule `CCCc1nc2c(N)nc3cc(Oc4ccc(C#N)cc4)ccc3c2n1CC(C)C` : 223 to 225 °C

Source of measurements: a melting point compilation (Tetko et al.; mined from patent text by program, amines drawn as free bases though some values may be those of a salt)
